Source: ChEMBL document CHEMBL1134366

target: 5-hydroxytryptamine receptor 2A (Rattus norvegicus, UniProt P14842); assay: Ability to stimulate phosphoinositide hydrolysis in NIH3T3 cells expressing the 5-hydroxytryptamine 2A receptor
Sequence (P14842 whole entry): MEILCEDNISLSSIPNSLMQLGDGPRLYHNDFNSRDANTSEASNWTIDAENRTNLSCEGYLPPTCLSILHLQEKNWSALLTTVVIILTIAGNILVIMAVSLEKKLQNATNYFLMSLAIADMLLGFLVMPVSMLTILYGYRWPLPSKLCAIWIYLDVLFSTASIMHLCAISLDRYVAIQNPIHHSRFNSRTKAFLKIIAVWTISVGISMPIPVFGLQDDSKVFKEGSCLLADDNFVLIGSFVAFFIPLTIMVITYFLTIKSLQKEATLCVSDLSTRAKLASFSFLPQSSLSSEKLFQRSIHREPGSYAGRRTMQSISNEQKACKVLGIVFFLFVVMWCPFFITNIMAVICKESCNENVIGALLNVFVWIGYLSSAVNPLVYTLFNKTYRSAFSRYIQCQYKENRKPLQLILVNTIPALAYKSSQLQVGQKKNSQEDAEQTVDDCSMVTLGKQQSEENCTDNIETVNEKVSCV
measuredAttribute: pEC50
Reminder that pEC50 is minus the log10 of a molar concentration.

Param item: COc1cc(C(F)(F)F)c(OC)cc1CC(C)N (configuration not stated) ; param system: 5-hydroxytryptamine receptor 2A (Rattus norvegicus, UniProt P14842); output pEC50: 7.16

Param item: C[C@@H](N)Cc1c2c(c(Br)c3c1OCC3)OCC2 ; param system: 5-hydroxytryptamine receptor 2A (Rattus norvegicus, UniProt P14842); output pEC50: 8.08

Param item: C[C@H](N)Cc1c2ccoc2c(Br)c2ccoc12 ; param system: 5-hydroxytryptamine receptor 2A (Rattus norvegicus, UniProt P14842); output pEC50: 7.72

Param item: C[C@@H](N)Cc1c2ccoc2cc2ccoc12 ; param system: 5-hydroxytryptamine receptor 2A (Rattus norvegicus, UniProt P14842); output pEC50: 6.23

Param item: C[C@@H](N)Cc1c2ccoc2c(Br)c2ccoc12 ; param system: 5-hydroxytryptamine receptor 2A (Rattus norvegicus, UniProt P14842); output pEC50: 8.57

Param item: C[C@@H](N)Cc1c2ccoc2c(C(F)(F)F)c2ccoc12 ; param system: 5-hydroxytryptamine receptor 2A (Rattus norvegicus, UniProt P14842); output pEC50: 8.42
